system: Staphylococcus epidermidis; assay: Antibacterial activity against Staphylococcus epidermidis CPHL A2 (Gram positive) strain, activity is expressed as log2MIC.; type: functional
parameter: Log2 MIC
No unit in the answer, only the number.

Ask: Which Log2 MIC is reported with Staphylococcus epidermidis for this entry: NCCN1CCN(c2cc3c(cc2N)c(=O)c(C(=O)O)cn3C2CC2)CC1 ?
Reply: 1

Ask: Another compound: Nc1cc2c(=O)c(C(=O)O)cn(C3CC3)c2cc1N1CCNCC1
Reply: 3

Ask: Try this compound too: CC1CN(c2cc3c(cc2N)c(=O)c(C(=O)O)cn3C2CC2)CCN1 (stereo unspecified)
Reply: 5

Ask: Try this compound next: CC(C)(C)n1cc(C(=O)O)c(=O)c2cc(N)c(N3CCSCC3)cc21
Reply: 8

Ask: Cc1c(N2CCNCC2)c(N)cc2c(=O)c(C(=O)O)cn(C3CC3)c12 , same question.
Reply: 5

Ask: Also check Nc1cc2c(=O)c(C(=O)O)cn(C3CC3)c2cc1N1CCSC1
Reply: 1

----------
test system: Staphylococcus epidermidis; test: Antibacterial activity against Staphylococcus epidermidis CPHL A2 (Gram positive) strain, activity is expressed as log2MIC.; format: functional
Provide the recorded Log2 MIC for the entries that follow.
Give the figure only, with no unit attached.

Ask: Need Log2 MIC, item CN1CCN(c2cc3c(c(N)c2N)c(=O)c(C(=O)O)cn3C2CC2)CC1
Reply: 0

Ask: Please do the same for NCCSc1cc2c(cc1N)c(=O)c(C(=O)O)cn2C1CC1 as well.
Reply: 0

Ask: Also need CC(C)(C)n1cc(C(=O)O)c(=O)c2cc(N)c(N3CCc4ccccc4C3)cc21 , thanks.
Reply: 8

Ask: Same thing, different molecule: O=C(O)c1cn(C2CC2)c2cc(N3CCNCC3)c(F)cc2c1=O
Reply: 11

Ask: Moving on to N#CCN1CCN(c2cc3c(cc2N)c(=O)c(C(=O)O)cn3C2CC2)CC1
Reply: 1

Ask: // repeat for CN1CCN(c2nc3c(cc2N)c(=O)c(C(=O)O)cn3C2CC2)CC1 and report
Reply: 5

Ask: And then Nc1cc2c(=O)c(C(=O)O)cn(C3CC3)c2cc1NC1CC1 , what is it?
Reply: 0

Ask: Quick one: Nc1cc2c(=O)c(C(=O)O)cn(C3CC3)c2cc1N1CCCC1
Reply: 0

Ask: Further, for CN1CCN(c2c(N)cc3c(=O)c(C(=O)O)cn(C4CC4)c3c2F)CC1 ?
Reply: 5

Ask: Now consider CN1CCN(c2cc3c(cc2N)c(=O)c(C(=O)O)cn3C(C)(C)C)CC1 and answer again.
Reply: 6
